# EC50 per record follows
# subject of test: Alpha-1D adrenergic receptor (Homo sapiens, UniProt P25100)
# Sequence (P25100 whole entry): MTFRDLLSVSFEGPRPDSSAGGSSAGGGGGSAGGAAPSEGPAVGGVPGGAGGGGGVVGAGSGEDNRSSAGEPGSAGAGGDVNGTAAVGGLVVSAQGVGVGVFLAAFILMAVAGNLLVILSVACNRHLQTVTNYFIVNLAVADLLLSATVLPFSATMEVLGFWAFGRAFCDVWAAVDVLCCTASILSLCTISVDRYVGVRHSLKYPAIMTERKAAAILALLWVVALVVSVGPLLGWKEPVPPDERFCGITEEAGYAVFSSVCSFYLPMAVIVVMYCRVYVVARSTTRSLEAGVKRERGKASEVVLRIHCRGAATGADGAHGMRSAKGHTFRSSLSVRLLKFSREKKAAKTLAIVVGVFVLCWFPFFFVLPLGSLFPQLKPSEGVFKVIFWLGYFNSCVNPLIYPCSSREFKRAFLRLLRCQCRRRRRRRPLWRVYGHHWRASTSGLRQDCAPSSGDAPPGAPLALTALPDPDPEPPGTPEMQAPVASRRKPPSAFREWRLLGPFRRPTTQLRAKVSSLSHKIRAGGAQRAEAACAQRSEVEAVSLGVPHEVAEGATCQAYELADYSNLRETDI
# protocol text: Agonist activity at human cloned adrenergic Alpha-1D receptor expressed in CHO cells assessed as calcium mobilization by FLIPR
# Type: functional, cell-based

[[record]]
compound = "Cn1ccc(-c2cccc3c2CCC3c2ncc[nH]2)n1 (centres undefined)"
value_measured = "> 10 µM"

[[record]]
compound = "Cc1oncc1-c1cccc2c1CCC2c1ncc[nH]1 (centres undefined)"
value_measured = "> 10 µM"


Request: Please look up its EC50: Cn1nccc1-c1cccc2c1CCC2c1ncc[nH]1 (centres undefined)
Response: > 10 µM

Request: Suppose we examine the compound COc1c(C)ccc2c1CCC2c1ncc[nH]1 (centres undefined) ; what EC50 value has been reported?
Response: > 10 µM
